This collection of values is drawn from PubChem BioAssay AID2060885.

- System: NCI-H23 complex spheroids with HUVEC/MSC, viability
- assay: Anticancer human tumor NCI-H23 cell line growth inhibition [RAS];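 further: spheroids exposed to compound for 7 days; 100% = DMSO vehicle control viability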
- conditionSummary: second compound 0.3 µM; first compound 0.00316 µM; stronger effect = lower value
resultType: viability, T/C (%)
Provide the reading as a plain figure in %.

Use these answered entries as a reference point.
>  <molecule>
C=CC(=O)N1CCN(c2nc(OCC3CCCN3C)nc3c(F)c(-c4nc(N)cc(C)c4C(F)(F)F)c(Cl)cc23)C(C)C1 (stereo unspecified) + CCn1c(-c2cccnc2C(C)OC)c2c3cc(ccc31)N1CCOC(CC(NC(=O)C(C(C)C)N(C)C(=O)C3(F)CCN(C(=O)C#CC(C)(C)N(C)C)CC3)C(=O)N3CCCC(N3)C(=O)OCC(C)(C)C2)C1

>  <reportedMeasurement>
25.8

$$$$
>  <molecule>
C=CC(=O)Nc1cc(Nc2nccc(-c3cn(C)c4ccccc34)n2)c(OC)cc1N(C)CCN(C)C + CCn1c(-c2cc(N3CCN(C)CC3)cnc2C(C)OC)c2c3cc(ccc31)-c1csc(n1)CC(NC(=O)C1CC1C)C(=O)N1CCCC(N1)C(=O)OCC(C)(C)C2

>  <reportedMeasurement>
16.5

$$$$
>  <molecule>
CC(C)n1nc(-c2ccc3oc(N)nc3c2)c2c(N)ncnc21 + CCn1c(-c2cccnc2C(C)OC)c2c3cc(ccc31)N1CCOC(CC(NC(=O)C(C(C)C)N(C)C(=O)C3(F)CCN(C(=O)C#CC(C)(C)N(C)C)CC3)C(=O)N3CCCC(N3)C(=O)OCC(C)(C)C2)C1

>  <reportedMeasurement>
22.9

$$$$
>  <molecule>
O=C(c1ccc(F)c(F)c1Nc1ccc(I)cc1F)N1CC(O)([C@@H]2CCCCN2)C1 + CCn1c(-c2cc(N3CCN(C)CC3)cnc2C(C)OC)c2c3cc(ccc31)-c1csc(n1)CC(NC(=O)C1CC1C)C(=O)N1CCCC(N1)C(=O)OCC(C)(C)C2

>  <reportedMeasurement>
12.4

$$$$
>  <molecule>
CCN1CCN(Cc2ccc(Nc3ncc(F)c(-c4cc(F)c5nc(C)n(C(C)C)c5c4)n3)nc2)CC1 + CCn1c(-c2cc(N3CCN(C)CC3)cnc2C(C)OC)c2c3cc(ccc31)-c1csc(n1)CC(NC(=O)C1CC1C)C(=O)N1CCCC(N1)C(=O)OCC(C)(C)C2

>  <reportedMeasurement>
14.8

$$$$

[ask] Bench note: what viability, T/C did O=C(c1ccc(F)c(F)c1Nc1ccc(I)cc1F)N1CC(O)([C@@H]2CCCCN2)C1 + CCn1c(-c2cccnc2C(C)OC)c2c3cc(ccc31)N1CCOC(CC(NC(=O)C(C(C)C)N(C)C(=O)C3(F)CCN(C(=O)C#CC(C)(C)N(C)C)CC3)C(=O)N3CCCC(N3)C(=O)OCC(C)(C)C2)C1 show?
[reply] 29.4

----------
- System: NCI-H23 complex spheroids with HUVEC/MSC, viability
- assay: Anticancer human tumor NCI-H23 cell line growth inhibition [RAS];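 further: spheroids exposed to compound for 7 days; 100% = DMSO vehicle control viability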
- conditionSummary: second compound 0.003 µM; first compound 0.3 µM; stronger effect = lower value
Below, each entry is listed alongside its reported viability, T/C.
Provide the reading as a plain figure in %.

>  <compound>
CC1(C)CCC(Nc2ncc(C(F)(F)F)c(-c3c[nH]c4c(P(C)(C)=O)c(C#N)ccc34)n2)CN1 (centres undefined) + CCn1c(-c2cc(N3CCN(C)CC3)cnc2C(C)OC)c2c3cc(ccc31)-c1csc(n1)CC(NC(=O)C1CC1C)C(=O)N1CCCC(N1)C(=O)OCC(C)(C)C2

>  <subjectOfTest>
NCI-H23 complex spheroids with HUVEC/MSC, viability

>  <resultType>
viability, T/C

>  <reportedMeasurement>
12.2

$$$$
>  <compound>
CCc1c2c(nc3ccc(O)cc13)-c1cc3c(c(=O)n1C2)COC(=O)[C@]3(O)CC + CCn1c(-c2cc(N3CCN(C)CC3)cnc2C(C)OC)c2c3cc(ccc31)-c1csc(n1)CC(NC(=O)C1CC1C)C(=O)N1CCCC(N1)C(=O)OCC(C)(C)C2

>  <subjectOfTest>
NCI-H23 complex spheroids with HUVEC/MSC, viability

>  <resultType>
viability, T/C

>  <reportedMeasurement>
1.2

$$$$
>  <compound>
CC1(C)CCC(Nc2ncc(C(F)(F)F)c(-c3c[nH]c4c(P(C)(C)=O)c(C#N)ccc34)n2)CN1 (centres undefined) + CCn1c(-c2cccnc2C(C)OC)c2c3cc(ccc31)N1CCOC(CC(NC(=O)C(C(C)C)N(C)C(=O)C3(F)CCN(C(=O)C#CC(C)(C)N(C)C)CC3)C(=O)N3CCCC(N3)C(=O)OCC(C)(C)C2)C1

>  <subjectOfTest>
NCI-H23 complex spheroids with HUVEC/MSC, viability

>  <resultType>
viability, T/C

>  <reportedMeasurement>
11.6

$$$$

[ask] Bench note: what viability, T/C did CCc1c2c(nc3ccc(O)cc13)-c1cc3c(c(=O)n1C2)COC(=O)[C@]3(O)CC + CCn1c(-c2cccnc2C(C)OC)c2c3cc(ccc31)N1CCOC(CC(NC(=O)C(C(C)C)N(C)C(=O)C3(F)CCN(C(=O)C#CC(C)(C)N(C)C)CC3)C(=O)N3CCCC(N3)C(=O)OCC(C)(C)C2)C1 show?
[reply] 0.91

----------
- System: NCI-H23 complex spheroids with HUVEC/MSC, viability
- assay: Anticancer human tumor NCI-H23 cell line growth inhibition [RAS];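 further: spheroids exposed to compound for 7 days; 100% = DMSO vehicle control viability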
- conditionSummary: second compound 0.316 µM; first compound 0.0316 µM; stronger effect = lower value
Quick rule for you: viability, T/C under 40% gets 1 (yes), anything else gets 0 (no).

Known results for compounds:
>  <compound>
CC(C)NCC(C(=O)N1CCN(c2ncnc3c2C(C)CC3O)CC1)c1ccc(Cl)cc1 (stereo not given) + C=CC(=O)N1CCN(c2nc(OCC3CCCN3C)nc3c(F)c(-c4nc(N)cc(C)c4C(F)(F)F)c(Cl)cc23)C(C)C1

>  <subjectOfTest>
NCI-H23 complex spheroids with HUVEC/MSC, viability

>  <discreteLabel>
1 (yes)

$$$$
>  <compound>
C[C@@H](NC(=O)c1ncnc(N)c1Cl)c1ncc(C(=O)Nc2cc(C(F)(F)F)c(Cl)cn2)s1 + C=CC(=O)N1CCN(c2nc(OCC3CCCN3C)nc3c(F)c(-c4nc(N)cc(C)c4C(F)(F)F)c(Cl)cc23)C(C)C1

>  <subjectOfTest>
NCI-H23 complex spheroids with HUVEC/MSC, viability

>  <discreteLabel>
0 (no)

$$$$
>  <compound>
CC(=O)OC12COC1CC(O)C1(C)C(=O)C(O)C3=C(C)C(OC(=O)C(O)C(NC(=O)OC(C)(C)C)c4ccccc4)CC(O)(C(OC(=O)c4ccccc4)C21)C3(C)C (stereo not given) + C#Cc1c(F)ccc2cc(O)cc(-c3ncc4c(N5CC6CCC(C5)N6)nc(OCC56CCCN5CC(F)C6)nc4c3F)c12

>  <subjectOfTest>
NCI-H23 complex spheroids with HUVEC/MSC, viability

>  <discreteLabel>
1 (yes)

$$$$

[ask] Field: below-cutoff. Rule: recorded viability, T/C strictly less than 40%. Subject: NC1c2ccccc2OC12CCN(c1cnc3c(N4CCCc5ncccc54)n[nH]c3n1)CC2 (stereo not given) + C#Cc1c(F)ccc2cc(O)cc(-c3ncc4c(N5CC6CCC(C5)N6)nc(OCC56CCCN5CC(F)C6)nc4c3F)c12
[reply] 0 (no)

[ask] Next entry: CCC(CC)c1cc(NC2CCC(N)C2)n2nccc2n1 (stereo not given) + C#Cc1c(F)ccc2cc(O)cc(-c3ncc4c(N5CC6CCC(C5)N6)nc(OCC56CCCN5CC(F)C6)nc4c3F)c12
[reply] 0 (no)

----------
- Test system: NCI-H23 complex spheroids with HUVEC/MSC, viability
- assay: Anticancer human tumor NCI-H23 cell line growth inhibition [RAS];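 further: spheroids exposed to compound for 7 days; 100% = DMSO vehicle control viability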
- conditionSummary: second compound 0.0949 µM; first compound 0.1 µM; stronger effect = lower value
Quick rule for you: viability, T/C under 20% gets true, anything else gets false.

>  <compound>
Cc1nc(N2CCC3(CC2)COC(C)C3N)c(CO)nc1Sc1ccnc(N)c1Cl (stereo not drawn) + CCn1c(-c2cccnc2C(C)OC)c2c3cc(ccc31)N1CCOC(CC(NC(=O)C(C(C)C)N(C)C(=O)C3(F)CCN(C(=O)C#CC(C)(C)N(C)C)CC3)C(=O)N3CCCC(N3)C(=O)OCC(C)(C)C2)C1

>  <discreteLabel>
false

$$$$
>  <compound>
CCN1CCN(Cc2ccc(Nc3ncc(F)c(-c4cc(F)c5nc(C)n(C(C)C)c5c4)n3)nc2)CC1 + CCn1c(-c2cc(N3CCN(C)CC3)cnc2C(C)OC)c2c3cc(ccc31)-c1csc(n1)CC(NC(=O)C1CC1C)C(=O)N1CCCC(N1)C(=O)OCC(C)(C)C2

>  <discreteLabel>
true

$$$$
>  <compound>
C[C@@H](NC(=O)c1ncnc(N)c1Cl)c1ncc(C(=O)Nc2cc(C(F)(F)F)c(Cl)cn2)s1 + CCn1c(-c2cccnc2C(C)OC)c2c3cc(ccc31)N1CCOC(CC(NC(=O)C(C(C)C)N(C)C(=O)C3(F)CCN(C(=O)C#CC(C)(C)N(C)C)CC3)C(=O)N3CCCC(N3)C(=O)OCC(C)(C)C2)C1

>  <discreteLabel>
false

$$$$
>  <compound>
C=CC(=O)Nc1cc(Nc2nccc(-c3cn(C)c4ccccc34)n2)c(OC)cc1N(C)CCN(C)C + CCn1c(-c2cc(N3CCN(C)CC3)cnc2C(C)OC)c2c3cc(ccc31)-c1csc(n1)CC(NC(=O)C1CC1C)C(=O)N1CCCC(N1)C(=O)OCC(C)(C)C2

>  <discreteLabel>
true

$$$$
>  <compound>
CC(Nc1ccc2c(c1)OCCn1cc(N3C(=O)OCC3C(F)F)nc1-2)C(N)=O (stereo not drawn) + CCn1c(-c2cccnc2C(C)OC)c2c3cc(ccc31)N1CCOC(CC(NC(=O)C(C(C)C)N(C)C(=O)C3(F)CCN(C(=O)C#CC(C)(C)N(C)C)CC3)C(=O)N3CCCC(N3)C(=O)OCC(C)(C)C2)C1

>  <discreteLabel>
false

$$$$
>  <compound>
Nc1ccn(C2OC(CO)C(O)C2(F)F)c(=O)n1 (stereo not drawn) + CCn1c(-c2cccnc2C(C)OC)c2c3cc(ccc31)N1CCOC(CC(NC(=O)C(C(C)C)N(C)C(=O)C3(F)CCN(C(=O)C#CC(C)(C)N(C)C)CC3)C(=O)N3CCCC(N3)C(=O)OCC(C)(C)C2)C1

>  <discreteLabel>
true

$$$$

[ask] Field: below-cutoff. Rule: recorded viability, T/C strictly less than 20%. Subject: C=CC(=O)N1CCN(c2nc(OCC3CCCN3C)nc3c(F)c(-c4nc(N)cc(C)c4C(F)(F)F)c(Cl)cc23)C(C)C1 (stereo not drawn) + CCn1c(-c2cc(N3CCN(C)CC3)cnc2C(C)OC)c2c3cc(ccc31)-c1csc(n1)CC(NC(=O)C1CC1C)C(=O)N1CCCC(N1)C(=O)OCC(C)(C)C2
[reply] true

[ask] Next entry: Nc1ccn(C2OC(CO)C(O)C2(F)F)c(=O)n1 (stereo not drawn) + CCn1c(-c2cc(N3CCN(C)CC3)cnc2C(C)OC)c2c3cc(ccc31)-c1csc(n1)CC(NC(=O)C1CC1C)C(=O)N1CCCC(N1)C(=O)OCC(C)(C)C2
[reply] true
